Source: ChEMBL document CHEMBL1201862

- Tested on: SNB-75
- EXPERIMENT_SUMMARY: NCI tumour cell line growth inhibition, 48 h
Structures can show the parent of a compound that is named as a salt. The source made the active and inactive calls. Cut-off read from the data, not from the text of the source: active = GI50 up to about 1.1 µM and inactive = higher.
Classes used: active, inactive

>>> class("Cc1cccc(/C=N/NC(=S)N2CCCC2)n1")
"inactive"
>>> class("CCOC(=O)/C(C(=O)c1ccccc1)=C1\\N[C@H](C(=O)OCC)CS1")
"inactive"
>>> class("C=CCN(N=O)C(=O)N(CCCCC(NC(C)=O)C(=O)NCc1ccccc1)Cc1ccccc1 (configuration not stated)")
"inactive"
>>> class("CCC(C)(C)C(=O)O[C@H]1C[C@@H](C)C=C2C=C[C@H](C)[C@H](CC[C@@H]3C[C@@H](O)CC(=O)O3)[C@H]21 [SIMVASTATIN]")
"active"
>>> class("NCCc1cc(O)c(O)cc1O [OXIDOPAMINE HYDROCHLORIDE]")
"inactive"
>>> class("O=C(O)c1ccc(Nc2cnc3ccc(C(F)(F)F)cc3n2)cc1")
"inactive"
>>> class("CS(=O)(=O)C(=Cc1ccccc1Cl)S(C)(=O)=O")
"inactive"
>>> class("CC(C)=CCN(N=O)c1ncnc2[nH]cnc12")
"inactive"
>>> class("Cc1cccc2c(=O)cc(-c3ccccc3)[nH]c12")
"inactive"
>>> class("CC1(C)C(N2CCOCC2)CS1(=O)=O (configuration not stated)")
"inactive"
>>> class("CCCCCCCCOC(=O)C12Oc3ccc(-c4ccc5c(c4O)C(=O)C4=C(O)CC(C)C(O)C4(C(=O)OCCCCCCCC)O5)c(O)c3C(=O)C1=C(O)CC(C)C2O (configuration not stated)")
"inactive"
>>> class("NC(=O)NC1C(C(N)=O)N(Cc2ccccc2)C(=O)N1Cc1ccccc1 (configuration not stated)")
"inactive"
>>> class("O=C(O)c1ccccc1CC1Cc2ccccc2C1")
"inactive"
>>> class("c1ccc(Nc2nnc(Cn3ccc4ccccc43)s2)cc1")
"inactive"
>>> class("Cc1ccc(Cl)c2c(=O)c3ccc(N)cc3sc12")
"inactive"
>>> class("COc1ccc2[nH]c3c(c2c1)CCc1c(OC)cccc1-3")
"inactive"
>>> class("NCCNCC(O)CO (configuration not stated)")
"inactive"
>>> class("N#Cc1cc([N+](=O)[O-])ccc1NC(=O)C(=O)C(C(=O)/C=C/c1ccccc1)C1OC(=O)c2ccccc21 (configuration not stated)")
"inactive"
>>> class("COc1cc([C@H]2c3cc(O)c(OC)cc3C[C@]3(O)[C@@H]2CO[C@@H]3O)ccc1O")
"inactive"
>>> class("OC1(c2cc3ccccc3s2)CCCCC1")
"inactive"
>>> class("C/C(=N/NC(=O)C[N+](C)(C)C)C(CN(C)C)C(=O)Nc1ccccc1 (configuration not stated)")
"inactive"
>>> class("N#Cc1c(-c2ccccc2)cc(-c2ccc(N)cc2)[nH]c1=O")
"inactive"
